Target: T1, Extracellular domain of cyno PD1 (cPD1-ECD) (Macaca fascicularis (cynomolgus))
T1 construct: Expressed with a hexahistidine tag or as Fc fusion; also called cynoPD1-ECD; cynoPD-1-ECD
T1 chain: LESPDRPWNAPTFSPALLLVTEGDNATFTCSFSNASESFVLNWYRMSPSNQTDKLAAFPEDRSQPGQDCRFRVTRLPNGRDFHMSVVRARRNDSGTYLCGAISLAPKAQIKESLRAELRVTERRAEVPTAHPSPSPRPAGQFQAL
Experiment: SPR ProteOn, cynoPD1-ECD; RANGE low replicate
Rule: measured kon below 300000 M⁻¹ s⁻¹ gets T; anything equal to or greater than 300000 M⁻¹ s⁻¹ gets F.

{"columns": ["binder", "answer_label"],
 "data": [
  ["PD1B184 (antibody, human IgG2, kappa, V domains shown, IgG2sigma/kappa; VH 43, VL 50; also called PD1H3/PD1L128) VH: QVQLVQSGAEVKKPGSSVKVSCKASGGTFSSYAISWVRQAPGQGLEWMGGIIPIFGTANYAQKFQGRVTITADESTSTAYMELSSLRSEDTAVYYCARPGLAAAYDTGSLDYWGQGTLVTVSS VL: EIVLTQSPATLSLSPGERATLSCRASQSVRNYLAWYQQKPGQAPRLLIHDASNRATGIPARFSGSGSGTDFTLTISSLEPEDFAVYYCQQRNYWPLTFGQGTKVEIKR", "T"],
  ["PD1B11 (antibody, V domains shown, Tested as IgG2sigma/kappa; also called PD1H3/PH9L3) VH: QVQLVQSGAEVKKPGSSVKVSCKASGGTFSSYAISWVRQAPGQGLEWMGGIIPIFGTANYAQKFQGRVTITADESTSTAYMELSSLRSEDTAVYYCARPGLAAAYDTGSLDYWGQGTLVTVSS VL: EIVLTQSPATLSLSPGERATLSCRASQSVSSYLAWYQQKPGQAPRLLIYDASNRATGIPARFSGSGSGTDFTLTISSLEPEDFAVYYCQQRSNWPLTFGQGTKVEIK", "T"],
  ["PD1B185 (antibody, human IgG2, kappa, V domains shown, IgG2sigma/kappa; VH 43, VL 55; also called PD1H3/PD1L132) VH: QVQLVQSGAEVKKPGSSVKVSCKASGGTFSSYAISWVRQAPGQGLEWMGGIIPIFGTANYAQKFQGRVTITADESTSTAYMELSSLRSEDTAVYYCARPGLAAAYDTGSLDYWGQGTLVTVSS VL: EIVLTQSPATLSLSPGERATLSCRASQSVRNYLAWYQQKPGQAPRLLIYDASDRATGIPARFSGSGSGTDFTLTISSLEPEDFAVYYCQQRWNWPLTFGQGTKVEIKR", "T"],
  ["PD1B70 (antibody, V domains shown, Tested as IgG2sigma/kappa; also called PD1H107/PH9L3) VH: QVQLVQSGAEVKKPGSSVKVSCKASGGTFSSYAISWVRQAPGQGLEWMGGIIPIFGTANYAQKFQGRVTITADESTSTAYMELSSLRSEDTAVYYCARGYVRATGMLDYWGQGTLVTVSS VL: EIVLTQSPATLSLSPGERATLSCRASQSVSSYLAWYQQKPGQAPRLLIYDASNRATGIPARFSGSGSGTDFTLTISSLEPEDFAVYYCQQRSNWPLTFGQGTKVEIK", "T"]
]}

Okay, now this binder:
Q) For PD1B160 (antibody, human IgG2, kappa, V domains shown, IgG2sigma/kappa; VH 42, VL 51; also called PD1H131/PD1L101) VH: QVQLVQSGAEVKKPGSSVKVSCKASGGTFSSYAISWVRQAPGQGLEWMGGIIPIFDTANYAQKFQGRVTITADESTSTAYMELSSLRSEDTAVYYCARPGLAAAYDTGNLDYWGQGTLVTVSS VL: EIVLTQSPATLSLSPGERATLSCRASQSVDSYLAWYQQKPGQAPRLLIKDASDRATGIPARFSGSGSGTDFTLTISSLEPEDFAVYYCQQRGNWPLTFGQGTKVEIKR , is the recorded kon below the cut-off of 300000 M⁻¹ s⁻¹?
A) F

// provenance: patent US20210277110A1
